assay: qHTS assay to identify small molecule that activate the aryl hydrocarbon receptor (AhR) signaling pathway - cell viability counter screen (AID 743086); details: HepG2-AhR-luc viability, CellTiter-Fluor, 24 h; series mostly up to 70.3 µM;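 note: HepG2 liver cells carrying the AhR DRE luciferase reporter; nearly all actives have a fitted effect of over 45% in size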
Records with an inconclusive call do not appear. The source made the active and inactive calls. Calls come from the whole dose curve; as a rule, active = well fitted cell-killing curve with a large enough effect in the repeat runs; inconclusive = weak or mixed curves, or effect the other way; inactive = flat fitted curve, though single readings scatter.

- molecule: "CC(=O)OC[C@H]1O[C@@H](O[C@H]2[C@H](O)[C@@H](OC(=O)c3ccccc3C(=O)O)[C@H](O)O[C@@H]2COC(C)=O)[C@H](O)[C@@H](OC(=O)c2ccccc2C(=O)O)[C@@H]1O"
  outcome: "inactive"
- molecule: "CN[C@@H]1CCc2[nH]c3ccc(C(N)=O)cc3c2C1"
  outcome: "inactive"
- molecule: "C=CCNC1=C2C[C@@H](C)C[C@H](OC)[C@H](O)[C@@H](C)/C=C(\\C)[C@H](OC(N)=O)[C@@H](OC)/C=C\\C=C(/C)C(=O)NC(=CC1=O)C2=O"
  outcome: "inactive"

###

test: qHTS assay for small molecules that induce genotoxicity in human embryonic kidney cells expressing luciferase-tagged ATAD5 - cell viability (AID 651634); settings: HEK293T ATAD5-luc cells viability, CellTiter-Fluor, 15.5 h; series mostly up to 83.3 µM; note: nearly all actives have a fitted effect of over 25% in size
Inconclusive results are not listed. Active and inactive are the calls of the source. Calls come from the whole dose curve.
// classify into active, inactive

These recorded examples may help you get a feel for the data.
- molecule: "CCCC(=O)O[C@]1(C(=O)COC(C)=O)CC[C@H]2[C@@H]3C[C@H](F)C4=CC(=O)C=C[C@]4(C)[C@@]3(F)[C@@H](O)C[C@@]21C"
  classification: "inactive"
- molecule: "CC(C)Cc1ccc([C@@H](C)C(=O)NS(C)(=O)=O)cc1"
  classification: "inactive"
- molecule: "CCCCCCCCCCCCCCCC(=O)OCC(COC(=O)CCCCCCCCCCCCCCC)OC(=O)CCCCCCCCCCCCCCC"
  classification: "inactive"
- molecule: "CN1CCc2c(c3ccccc3n2Cc2ccccc2)C1"
  classification: "inactive"
- molecule: "O=C(O)COc1ccc(CCNS(=O)(=O)c2ccccc2)s1"
  classification: "inactive"

Attention now shifts to the item below.
I'd appreciate the recorded outcome for CCC(=O)NS(=O)(=O)c1ccc(-c2c(-c3ccccc3)noc2C)cc1 from this test. inactive

###

test: qHTS assay for identifying genotoxic compounds that show differential cytotoxicity against isogenic chicken DT40 cell lines with known DNA damage response pathways - wild type cell line (AID 743012); conditions: DT40 wild type chicken cells viability, CellTiter-Glo, 40 h; series mostly up to 68.4 µM; note: nearly all actives have a fitted effect of over 60% in size; note: potency is the fitted concentration of half-maximal effect
Records with an inconclusive call do not appear. Calls of active or inactive are those of the source. Calls come from the whole dose curve; as a rule, active = well fitted cell-killing curve with a large enough effect in the repeat runs; inconclusive = weak or mixed curves, or effect the other way; inactive = no such curve, though single readings can be large or run the other way.
parameter-measured: Potency

# example entries with known answers
- compound: "O=C(O)C1CCCN1 (stereo not given)"
  Potency: "inactive"
- compound: "O=P(O)(O)C(Sc1ccc(Cl)cc1)P(=O)(O)O"
  Potency: "inactive"
- compound: "CCCCC(F)(F)[C@@]1(O)CC[C@H]2[C@@H](CC(=O)[C@@H]2CCCCCCC(=O)O)O1"
  Potency: "inactive"
- compound: "CS(=O)(=O)OCC(O)C(O)COS(C)(=O)=O (stereo not given)"
  Potency: "8.41 µM (active)"
- compound: "O=C(O)CCC/C=C\\C[C@@H]1[C@@H](/C=C/[C@@H](O)COc2cccc(C(F)(F)F)c2)[C@H](O)C[C@@H]1O"
  Potency: "inactive"
- compound: "CN1CCC(CN2c3ccccc3Sc3ccccc32)C1 (stereo not given)"
  Potency: "5.96 µM (active)"
- compound: "CCC(=O)NS(=O)(=O)c1ccc(-c2c(-c3ccccc3)noc2C)cc1"
  Potency: "inactive"
- compound: "CCCC1([C@H](O)C/C=C/[C@H]2[C@H](O)CC(=O)[C@@H]2CCCCCCC(=O)OC)CCC1"
  Potency: "11.9 µM (active)"

So for COC(=O)[C@H]1[C@H]2C[C@@H]3c4[nH]c5cc(OC)ccc5c4CCN3C[C@H]2C[C@H](OC)[C@@H]1OC , the logged Potency turned out to be inactive

So for CC(C)(C)c1ccc(CN2CCN(C(c3ccccc3)c3ccc(Cl)cc3)CC2)cc1 (stereo not given) , the logged Potency turned out to be 5.31 µM (active)
